# EXPERIMENTAL_SYSTEM: T1, RSV postfusion F (postF), subtype A (respiratory syncytial virus subtype A, UniProt P03420 26-513)
# T1 construct: also called Postfusion subtype A; F deltaFP
# TEST_DESCRIPTION: BLI, IgG
pKd: −log10 of the molar value.
Param threshold (9) applies to pKd; output Fulfilled when value >= threshold, Not fulfilled when value < threshold.

ADI-14351 (antibody, V domains shown, full-length IgG; also called Ab 19) VH: EVQLLESGGGLVQPGGSLRLSCSASGFTFSTYWMHWVRQAPGKGLVWVSRINGDGNDRNYADSVKGRFTISRDNAKNTVYLQMNSLRAEDTAVYYCARGGATGDFYFGMDVWGQGTTVTVSS VL: SYELTQPPSVSVAPGKTAKITCGGNNIGTKSVHWYQQKPGQAPVLVIYYDTDRPSGIPERFSGSNSGNTATLTISRVEAGDEADYYCQVWDSSNSDHVGVFGGGTQLTVL
Fulfilled

Moving on to the next binder.
[in] Could you tell me if the measured pKd of ADI-25587 (antibody, V domains shown, full-length IgG) VH: QVQLVESGGGVVQPGRSLRLSCAASGFTFSSYGMHWVRQAPGKGLEWVAVIWYDGSNKYYADSVKGRFTISRDNSKNTLYLQMNSLRAEDTAVYYCARDSTYSEAFDIWGQGTMVTVSS VL: QSVLIQPASVSGSPGQSITISCTGTSSDVGGYNYVSWYQQHPGKAPKLMIYDVSNRPSGVSNRFSGSKSGNTASLTISGLQAEDEADYYCSSYTSSSTWVFGGGTKVTVL reaches 9 or more?
[out] Not fulfilled

Numbers sourced from patent US20260258115A1.
